assay: Acute toxicity; details: mouse, in vivo, ip; intraperitoneal, male mice, 7 days
metric: LD50 at 168 h (mg/kg)
Give just the number in mg/kg; leave the unit off.

Please give the documented LD50 at 168 h of c1ccc(C2Oc3ccccc3C3SCCN23)cc1 (stereo not shown) [Compound No. 1] 500

src = patent US4564615A
